Assayed target: T1, extracellular domain (ECD) of human αKlotho, amino acids E34-S981 with C-terminal 6-His tag (R&D Systems … (human, UniProt Q9UEF7 34-981))
T1 construct: range 34-981; also called αKlotho (aa34-981); target antigen
T1 sequence: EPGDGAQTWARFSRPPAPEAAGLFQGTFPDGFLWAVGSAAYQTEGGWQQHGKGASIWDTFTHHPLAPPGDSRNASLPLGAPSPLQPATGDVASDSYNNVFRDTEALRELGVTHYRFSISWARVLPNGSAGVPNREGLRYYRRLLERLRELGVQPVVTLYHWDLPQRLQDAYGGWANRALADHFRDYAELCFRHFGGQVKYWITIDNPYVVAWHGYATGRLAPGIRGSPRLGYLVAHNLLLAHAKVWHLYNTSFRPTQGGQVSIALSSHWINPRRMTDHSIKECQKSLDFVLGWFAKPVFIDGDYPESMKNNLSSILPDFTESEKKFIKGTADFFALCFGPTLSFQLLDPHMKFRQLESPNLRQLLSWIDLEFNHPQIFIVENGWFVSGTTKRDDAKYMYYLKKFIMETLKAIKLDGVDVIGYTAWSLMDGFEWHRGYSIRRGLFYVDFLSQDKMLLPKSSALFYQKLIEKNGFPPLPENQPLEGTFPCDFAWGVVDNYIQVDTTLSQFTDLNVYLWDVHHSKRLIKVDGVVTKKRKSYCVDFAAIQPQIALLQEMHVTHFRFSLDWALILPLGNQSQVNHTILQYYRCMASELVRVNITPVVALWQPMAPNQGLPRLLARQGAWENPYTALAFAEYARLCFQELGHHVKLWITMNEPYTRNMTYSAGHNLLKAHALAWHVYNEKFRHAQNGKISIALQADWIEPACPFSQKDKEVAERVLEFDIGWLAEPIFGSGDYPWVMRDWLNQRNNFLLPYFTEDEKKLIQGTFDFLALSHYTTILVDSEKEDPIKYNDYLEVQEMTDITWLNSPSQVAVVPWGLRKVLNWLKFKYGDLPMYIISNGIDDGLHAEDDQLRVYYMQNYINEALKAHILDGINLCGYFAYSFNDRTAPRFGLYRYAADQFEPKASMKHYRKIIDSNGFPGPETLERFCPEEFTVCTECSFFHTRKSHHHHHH
Assay method text: SPR, Fab captured by anti-H+L IgG, αKlotho injected at 50 to 6.25 ug/ml, Langmuir fit
Quantity: koff (s⁻¹)
Response body: numeric value in s⁻¹, unit text excluded.

Example results:
Binder	koff / s⁻¹
anti-αKlotho Fab clone 4804 (Fab, V domains shown, Fab (also as Fab-phage); FLAG tag on light chain C-terminus; also called sb173) VH: EVQLVESGGGLVQPGGSLRLSCAASGFNLYSYSIHWVRQAPGKGLEWVAYISSSSGSTYYADSVKGRFTISADTSKNTAYLQMNSLRAEDTAVYYCARGWGGGYWFYPVYGIDYWGQGTLVTVSS VL: DIQMTQSPSSLSASVGDRVTITCRASQSVSSAVAWYQQKPGKAPKLLIYSASSLYSGVPSRFSGSRSGTDFTLTISSLQPEDFATYYCQQSSYSLITFGQGTKVEIKR	0.000738
sb106 Fab (Fab, V domains shown, also called Fsb106; clone 48) VH: EVQLVESGGGLVQPGGSLRLSCAASGFNISYYSIHWVRQAPGKGLEWVAYISPSYGYTSYADSVKGRFTISADTSKNTAYLQMNSLRAEDTAVYYCARYYVYASHGWAGYGMDYWGQGTLVTVSS VL: DIQMTQSPSSLSASVGDRVTITCRASQSVSSAVAWYQQKPGKAPKLLIYSASSLYSGVPSRFSGSRSGTDFTLTISSLQPEDFATYYCQQAGYSPITFGQGTKVEIKR	0.000389
anti-αKlotho Fab clone 4807 (Fab, V domains shown, Fab (also as Fab-phage); FLAG tag on light chain; also called sb176) VH: EVQLVESGGGLVQPGGSLRLSCAASGFNLSSSYMHWVRQAPGKGLEWVASIYPSYGSTSYADSVKGRFTISADTSKNTAYLQMNSLRAEDTAVYYCARGVVPSYYYWFWPYGAIDYWGQGTLVTVSS VL: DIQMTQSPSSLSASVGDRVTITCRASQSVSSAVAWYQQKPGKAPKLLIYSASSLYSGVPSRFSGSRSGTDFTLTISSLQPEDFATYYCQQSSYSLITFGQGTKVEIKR	0.00244

Continue with the next binder.
Asked: Fill in reported koff for this entry: anti-αKlotho Fab clone 4805 (Fab, V domains shown, Fab (also as Fab-phage); FLAG tag on light chain; also called sb174) VH: EVQLVESGGGLVQPGGSLRLSCAASGFNLSYYSMHWVRQAPGKGLEWVASISSYYGSTYYADSVKGRFTISADTSKNTAYLQMNSLRAEDTAVYYCARGGGYYSGPYAGFDYWGQGTLVTVSS VL: DIQMTQSPSSLSASVGDRVTITCRASQSVSSAVAWYQQKPGKAPKLLIYSASSLYSGVPSRFSGSRSGTDFTLTISSLQPEDFATYYCQQSSGWYHFLFTFGQGTKVEIKR
Given back: 0.000183

Just for reference, patent US20190041402A1 is where these values come from.
